The reported numbers originate from ChEMBL document CHEMBL1201862.

# Tested on: SF-295
# assay.method.text: NCI tumour cell line growth inhibition, 48 h
Activity calls are given as the source filed them. No stated cut-off is given here; in the data, active = GI50 up to about 1.1 µM and inactive = higher.
Result category, one only: YES for active, NO for inactive

{"molecule": "CC[C@@H](/C=C\\CCC1(C[C@@H](N)CCC=C(C)C)OCCO1)O[Si](C(C)C)(C(C)C)C(C)C", "qualitative.label": "NO"}
{"molecule": "CCCCON1C[C@H](OC(C)=O)C(OC(C)=O)[C@H](OC(C)=O)C1 (stereo not given in full)", "qualitative.label": "NO"}
{"molecule": "CC(=O)Nc1ccc(/C=C/c2ccc(NC(=O)Nc3ccc(/C=C/c4ccc(NC(C)=O)cc4S(=O)(=O)O)c(S(=O)(=O)O)c3)cc2S(=O)(=O)O)c(S(=O)(=O)O)c1", "qualitative.label": "NO"}
{"molecule": "Cn1c(=O)c2c(nc3n2CCCC(=O)N3CC(O)CCl)n(C)c1=O (stereo not given)", "qualitative.label": "NO"}
{"molecule": "C=C1CN=C(Nc2ccc(Cl)cc2)S1", "qualitative.label": "NO"}

Qu. For c1ccc(SCCCC(Sc2ccccc2)Sc2ccccc2)cc1 , what call appears in the results of this test?
Ans. NO

Qu. Per the assay record, what outcome was assigned to CC(=O)OC1CC2(O)C(CCC3(C)C(c4ccc(=O)oc4)CCC32O)C2(C)CCC(O)C=C12 (stereo not given) ?
Ans. YES

Qu. Recorded call for Cc1c(C)c(S(=O)(=O)N(CCCCN)OCCCN)c(C)c2c1OC(C)(C)CC2 ?
Ans. NO

Qu. Dear all, I need the recorded test outcome for COc1ccc(C2C3CCc4ccccc4C3=NN2S(=O)(=O)c2ccc(Cl)cc2)cc1 (stereo not given) , thank you.
Ans. NO

----------
# GI50 listing for each entry below
# System: TK-10
# assay.method.text: NCI tumour cell line growth inhibition, 48 h
Calls of active or inactive are those of the source. No stated cut-off is given here; in the data, active = GI50 up to about 1.1 µM and inactive = higher.

{"molecule": "Cc1nccn1S(=O)(=O)c1ccc(Br)cc1Br", "GI50": "38.6 µM (inactive)"}

Qu. Name the reported GI50 value associated with the molecule Cc1cc(C)nc(NS(=O)(=O)c2ccc(NC(=O)c3cccc4c(NNc5ccc(S(=O)(=O)N=C(N)N)cc5)c5ccccc5nc34)cc2)n1
Ans. > 50 µM (inactive)

Qu. Field request: GI50 | item: O=P1(O)C=CC2(CCCC2)O1
Ans. > 100 µM (inactive)

Qu. So what does the record say about GI50 for Cc1ccsc1/C=N/Nc1ccc2ccccc2n1 ?
Ans. 19.9 µM (inactive)

Qu. So what's the measured GI50 for this one? C=C(C)COc1cc(/N=C(/S)OC(C)C)ccc1Cl
Ans. 15.2 µM (inactive)

Qu. Any idea what GI50 was measured for NNC(=O)CNc1cccc(Br)c1 ?
Ans. > 100 µM (inactive)

Qu. Item Cc1c2cnccc2c(C)c2c1[nH]c1ccc(O)cc12 has what recorded GI50?
Ans. 3.91 µM (inactive)

Qu. Suppose we examine the molecule Nc1nc(O)c2c(n1)NCN(c1ccc(S(N)(=O)=O)cc1)C2 ; what GI50 value has been reported?
Ans. > 100 µM (inactive)

Qu. Give the measured GI50 of CC(C)NCC(O)c1cc(OCc2ccccc2)c(OCc2ccccc2)cc1NC(=O)CCC(=O)O (stereo not drawn) .
Ans. 7.53 µM (inactive)

Qu. Recorded GI50 for Nc1nc(Cl)cc(NCC2CC(O)(CO)C2)n1 (stereo not drawn) , please?
Ans. > 100 µM (inactive)

Qu. Query: GI50; subject: C=C1C(=O)OC2/C=C(\C)C3OC3/C=C(/C(=O)OC)C(OC(C)=O)C(OC(=O)C(C)(O)C(C)OC(C)=O)C12 (stereo not drawn)
Ans. 1.83 µM (inactive)

Qu. Reported GI50, molecule O=C(O)C12CC3CC(C1)C2C=C3P(=O)(O)O (stereo not drawn) : ____
Ans. > 100 µM (inactive)

Qu. Please give the measured GI50 for this molecule: COc1ccc(Cc2cc(OC)c(OC)c(OC)c2)cc1
Ans. 6.79 µM (inactive)

Qu. Report GI50 for C=C(CCC/C(C)=C/C=C/[C@H](C)CCCc1ccoc1)C[C@@H]1OC(=O)[C@H](C)[C@@H]1O please.
Ans. 10.6 µM (inactive)

Qu. Reported GI50 for O=C1CCCCC1S(=O)(=O)c1ccccc1 (stereo not drawn) : what is it?
Ans. > 100 µM (inactive)

Qu. Item C=C1CCN2CC[C@@H](OC(=O)/C(C)=C\C)[C@@H]12 has what recorded GI50?
Ans. > 100 µM (inactive)

Qu. Would you mind telling me what GI50 value was observed for Cc1nc2c(=O)[nH]c(=O)n(C)c2[nH]c1=O.c1ccncc1 ?
Ans. > 100 µM (inactive)

----------
# System: SK-MEL-5
# assay.method.text: NCI tumour cell line growth inhibition, 48 h
Activity calls are given as the source filed them. Cut-off read from the data, not from the text of the source: active = GI50 up to about 1.1 µM and inactive = higher.
API: response.call in T = active, F = inactive

{"molecule": "Cc1ccc(C2=C(c3ccccc3)C(Br)(c3ccccc3)C(c3ccccc3)=C2c2ccc(C)cc2)cc1", "qualitative.label": "F"}

Qu. For this molecule, state the assay outcome: Cn1c(=O)c2c(nc3n2CCCC(=O)N3CC(O)CCl)n(C)c1=O (stereo not given)
Ans. F

Qu. Call for entry CCCCCCCCCC[C@@H](O)[C@@H]1CC[C@@H]([C@@H]2CC[C@@H]([C@@H](O)CCCCCCCCCCC(O)CC3=CC(C)OC3=O)O2)O1 (stereo not given in full) :
Ans. T

Qu. // param item: COc1ccc(Cn2c3c(cc(OS(=O)(=O)C(F)(F)F)c2=O)Cc2ccccc2-3)cc1 ; yields the recorded call
Ans. F

Qu. Test call, this molecule: COc1cccc2c1C1(O)C2CCCCCCCCCC12OCCCO2 (stereo not given)
Ans. F

----------
# Tested on: UO-31
# assay.method.text: NCI tumour cell line growth inhibition, 48 h
Active and inactive are the calls of the source. Rule as the data show it: active = GI50 up to about 1.1 µM and inactive = higher.
API: response.call in active, inactive

Worked cases, answers included:
{"compound": "CN1CN(C(=O)N2CN(C)C(=O)N(C)C2)CN(C)C1=O", "qualitative.label": "inactive"}
{"compound": "O=NN(Cc1ccc(Cl)cc1)C(C(=O)O)c1ccccc1 (configuration not stated)", "qualitative.label": "inactive"}
{"compound": "Cc1ccnc2[nH]c(-c3ccccc3)cc(=O)c12", "qualitative.label": "active"}
{"compound": "O=[N+]([O-])O", "qualitative.label": "inactive"}
{"compound": "Cc1csc(-c2cn(C)c3c2C(=O)C(=N)C=C3O)n1", "qualitative.label": "inactive"}
{"compound": "COc1cc(CC2c3cc(OC)c(OC)cc3CCN2C)ccc1O (configuration not stated)", "qualitative.label": "inactive"}
{"compound": "CN(C)CCCNC(=O)c1cc(NC(=O)c2cc(NC(=O)CCCn3c4ccccc4c4ccccc43)cn2C)cn1C", "qualitative.label": "inactive"}
{"compound": "COC(=O)C(C)(C)NC(=O)C(Cc1ccccc1)Nc1ncnc2c1ncn2-c1ccc(OC)cc1 (configuration not stated)", "qualitative.label": "inactive"}
{"compound": "CCCCCCCCCCCCCCCCCC(=O)O[C@H](COC(=O)CCCCCCCCCCC)COC(=O)CCCCCCCCCCCCCCC", "qualitative.label": "inactive"}
{"compound": "COCN1C(=O)[C@@H]2CCCN2C(=O)c2ccc(N)cc21", "qualitative.label": "inactive"}

Consider the record given below.
Qu. Call for entry C/C(=N\N=C(N)N)c1sc(-c2nc(C)c(/C(C)=N/N=C(N)N)s2)nc1C :
Ans. inactive

----------
Listed next: entries and their corresponding GI50.
# Test system: SF-268
# assay.method.text: NCI tumour cell line growth inhibition, 48 h
Active and inactive are the calls of the source. No stated cut-off is given here; in the data, active = GI50 up to about 1.1 µM and inactive = higher.

{"molecule": "O=C(/C=C1\\N=C(c2ccccc2)N(c2nc3c(Cl)cc(Cl)cc3s2)C1=O)/C=C/c1ccccc1", "GI50": "> 100 µM (inactive)"}
{"molecule": "CC1(C)O[C@H]2OC(CO[Si](C)(C)C(C)(C)C)C(N=[N+]=[N-])[C@H]2O1 (some centres undefined)", "GI50": "20.7 µM (inactive)"}
{"molecule": "Cc1cc(O)c2c(c1O)C(=O)C1=C(C2=O)C(=O)C2C(O)C1C1C(O)CC(O)=C3C(=O)c4c(O)cc(C)c(O)c4C(=O)C321 (centres undefined)", "GI50": "2.28 µM (inactive)"}
{"molecule": "C/C(CN1C(=O)c2ccccc2C1=O)=N\\NS(=O)(=O)c1ccc(Br)cc1", "GI50": "> 100 µM (inactive)"}
{"molecule": "COc1cc(O)c2c(=O)c(O)c(-c3ccc(O)c(OC)c3)oc2c1 [RHAMNAZIN]", "GI50": "1.89 µM (inactive)"}

Qu. SF-268 / GI50 / O=C1Oc2ccccc2N/C1=C/C(=O)c1ccc(Cl)cc1 : value?
Ans. > 100 µM (inactive)

Qu. What GI50 appears in the records for this molecule with SF-268? Cc1cn2c(/C=C3/C(=O)Nc4ccccc43)c(C)nc2s1
Ans. 3.98 µM (inactive)

Qu. What value of GI50 on SF-268 does CO/S(=N/S(=O)(=O)c1ccccc1)c1ccccc1[N+](=O)[O-] (centres undefined) have?
Ans. > 100 µM (inactive)

Qu. Hi! What's the reported GI50 for Nc1ncnc2c1ncn2[C@@H]1O[C@H](C(=O)O)[C@@H](O)[C@H]1O [5'-CARBOXY ADENOSINE] on SF-268?
Ans. > 100 µM (inactive)
